- test details: in vitro
- recorded conditions: human
Bridge positions count the residues as written; N and C are the ends. Square brackets hold non-standard residues; d marks the D form. Peptide text beside a SMILES is read from it. 2Nal = N[C@@H](Cc1ccc2ccccc2c1)C(=O)O; 4Pal = N[C@@H](Cc1ccncc1)C(=O)O; Cit = NC(=O)NCCC[C@H](N)C(=O)O
measured parameter: GI50 at 48 h (µM)
One number for each entry, in µM.

Here is how some compounds turned out for GI50 at 48 h.
>>> quantitative_result("N=C(N)NCCC[C@@H]1NC(=O)[C@@H]2CSSC[C@H](NC(=O)[C@H](Cc3ccc4ccccc4c3)NC(=O)[C@H](CCCNC(=N)N)NC(=O)[C@H](CCCNC(=N)N)NC(=O)[C@H]3CCCN3C(=O)CNC1=O)C(=O)N[C@@H](Cc1ccc(O)cc1)C(=O)N[C@@H](CCC(N)=O)C(=O)N[C@@H](CCCCN)C(=O)N1CCC[C@@H]1C(=O)N1CCC[C@H]1C(=O)N[C@@H](CCCNC(=N)N)C(=O)N[C@@H](CCCNC(=N)N)C(=O)N[C@@H](CCCNC(N)=O)C(=O)N2 [compound 63] (cyclo(RR[Cit]CRG[dP]RR[2Nal]CYQK[dP]P); disulfide 4-11)")
58
>>> quantitative_result("N=C(N)NCCC[C@@H]1NC(=O)[C@@H]2CSSC[C@H](NC(=O)[C@H](Cc3ccc4ccccc4c3)NC(=O)[C@H](CCCNC(=N)N)NC(=O)[C@H](CCCNC(=N)N)NC(=O)[C@H]3CCCN3C(=O)CNC1=O)C(=O)N[C@@H](Cc1ccc(O)cc1)C(=O)N[C@@H](CCC(N)=O)C(=O)N[C@@H](CC(=O)O)C(=O)N1CCC[C@@H]1C(=O)N1CCC[C@H]1C(=O)N[C@@H](Cc1ccc(O)cc1)C(=O)N[C@@H](CCCNC(=N)N)C(=O)N[C@@H](CCCNC(N)=O)C(=O)N2 [Ex. 85] (cyclo(YR[Cit]CRG[dP]RR[2Nal]CYQD[dP]P); disulfide 4-11)")
94
>>> quantitative_result("C[C@@H](O)[C@@H]1NC(=O)[C@H](Cc2ccncc2)NC(=O)[C@H](Cc2ccc(O)cc2)NC(=O)[C@@H]2CCCN2C(=O)[C@H]2CCCN2C(=O)[C@H](CCCCN)NC(=O)[C@H](CCC(N)=O)NC(=O)[C@H](Cc2ccc(O)cc2)NC(=O)[C@@H]2CSSC[C@H](NC1=O)C(=O)N[C@@H](CCCNC(=N)N)C(=O)NCC(=O)N1CCC[C@@H]1C(=O)N[C@@H](CCCNC(=N)N)C(=O)N[C@@H](CCCNC(=N)N)C(=O)N[C@@H](Cc1c[nH]c3ccccc13)C(=O)N2 [Ex. 119] (cyclo(Y[4Pal]TCRG[dP]RRWCYQK[dP]P); disulfide 4-11)")
63

Consider the record given below.
The recorded GI50 at 48 h for entry N=C(N)NCCC[C@@H]1NC(=O)[C@@H]2CSSC[C@H](NC(=O)[C@H](Cc3c[nH]c4ccccc34)NC(=O)[C@H](CCCNC(=N)N)NC(=O)[C@H](CCCNC(=N)N)NC(=O)[C@H]3CCCN3C(=O)CNC1=O)C(=O)N[C@@H](Cc1ccc(O)cc1)C(=O)N[C@@H](CCC(N)=O)C(=O)N[C@@H](CCCCN)C(=O)N1CCC[C@@H]1C(=O)N1CCC[C@H]1C(=O)N[C@@H](Cc1ccc(O)cc1)C(=O)N[C@@H](CCCNC(=N)N)C(=O)N[C@@H](CCCNC(N)=O)C(=O)N2 [Ex. 108] (cyclo(YR[Cit]CRG[dP]RRWCYQK[dP]P); disulfide 4-11) equals 70

----------
- target entity: CXCR4 (Homo sapiens)
- Sequence (P61073 whole entry): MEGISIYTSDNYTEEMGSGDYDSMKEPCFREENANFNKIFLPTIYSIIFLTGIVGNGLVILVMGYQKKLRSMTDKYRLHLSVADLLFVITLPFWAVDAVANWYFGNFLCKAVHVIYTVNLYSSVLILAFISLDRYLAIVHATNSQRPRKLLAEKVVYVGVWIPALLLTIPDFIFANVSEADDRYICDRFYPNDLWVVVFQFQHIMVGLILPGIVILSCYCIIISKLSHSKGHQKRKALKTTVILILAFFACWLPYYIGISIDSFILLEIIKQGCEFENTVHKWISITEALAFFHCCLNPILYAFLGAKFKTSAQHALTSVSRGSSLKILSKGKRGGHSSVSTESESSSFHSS
- test details: Ca2+-assay method 2 (Flexstation, SDF-1 induced calcium mobilization)
- Format: cell-based
- Set-up: expressed in transfected cells; host or cells: mouse pre-B cell line 300-19
- recorded conditions: method 2 (Ex. 54-160), mouse pre-B cell line 300-19 with human CXCR4, 10 nM SDF-1; read-out: IC50 (nM) Ca^2+ assay
- Protocol: 2.2. Ca^2+-Assay: CXCR4-Antagonizing Activity of the Peptides. The cells were batch loaded with the Calcium 3 Assay kit (Molecular Devices) in assay buffer (Hanks Balanced salt solution, HBSS, 20 mM HEPES, pH 7.4, 0.1% BSA) for 1 h at room temperature and then 200,000 labeled cells were dispensed into black 96 well assays plates (Costar No. 3603). […] A maximal change in fluorescence response above baseline was used to calculate antagonist activity. […]
Bridge positions count the residues as written; N and C are the ends. Square brackets hold non-standard residues; d marks the D form. Peptide text beside a SMILES is read from it. Phe(4-F) = N[C@@H](Cc1ccc(F)cc1)C(=O)O; 2Nal = N[C@@H](Cc1ccc2ccccc2c1)C(=O)O; Cit = NC(=O)NCCC[C@H](N)C(=O)O
measured parameter: IC50
Respond with the figure and its unit, in that order.

>>> result("N=C(N)NCCC[C@@H]1NC(=O)[C@@H]2CSSC[C@H](NC(=O)[C@H](Cc3ccc4ccccc4c3)NC(=O)[C@H](CCCNC(=N)N)NC(=O)[C@H](CCCNC(=N)N)NC(=O)[C@H]3CCCN3C(=O)CNC1=O)C(=O)N[C@@H](Cc1ccc(O)cc1)C(=O)N[C@@H](CCC(N)=O)C(=O)N[C@@H](CCCCN)C(=O)N1CCC[C@@H]1C(=O)N1CCC[C@H]1C(=O)N[C@@H](Cc1ccc(O)cc1)C(=O)N[C@@H](CCCNC(=N)N)C(=O)N[C@@H](Cc1ccc(F)cc1)C(=O)N2 [Ex. 99] (cyclo(YR[Phe(4-F)]CRG[dP]RR[2Nal]CYQK[dP]P); disulfide 4-11)")
"4.2 nM"

Dear colleague, could you send me IC50 for each of the items below? Thanks.
1. C[C@@H](O)[C@@H]1NC(=O)[C@H](CCCNC(=N)N)NC(=O)[C@H](Cc2ccc(O)cc2)NC(=O)[C@@H]2CCCN2C(=O)[C@H]2CCCN2C(=O)[C@H](CCCCN)NC(=O)[C@H](CCCNC(N)=O)NC(=O)[C@H](Cc2ccc(O)cc2)NC(=O)[C@@H]2CSSC[C@H](NC1=O)C(=O)N[C@@H](CCCNC(=N)N)C(=O)NCC(=O)N1CCC[C@@H]1C(=O)N[C@@H](CCCNC(=N)N)C(=O)N[C@@H](CCCNC(=N)N)C(=O)N[C@@H](Cc1ccc3ccccc3c1)C(=O)N2 [Ex. 131] (cyclo(YRTCRG[dP]RR[2Nal]CY[Cit]K[dP]P); disulfide 4-11)
2. C[C@@H](O)[C@@H]1NC(=O)[C@@H]2CCCN2C(=O)[C@H]2CCCN2C(=O)[C@H](CCCCN)NC(=O)[C@H](CCC(N)=O)NC(=O)[C@H](Cc2ccc(O)cc2)NC(=O)[C@@H]2CSSC[C@H](NC(=O)[C@H](CCCNC(N)=O)NC(=O)[C@H](CCCNC(=N)N)NC1=O)C(=O)N[C@@H](CCCNC(=N)N)C(=O)NCC(=O)N1CCC[C@@H]1C(=O)N[C@@H](CCCNC(=N)N)C(=O)N[C@@H](CCCNC(=N)N)C(=O)N[C@@H](Cc1ccc3ccccc3c1)C(=O)N2 [Ex. 67] (cyclo(TR[Cit]CRG[dP]RR[2Nal]CYQK[dP]P); disulfide 4-11)

Result ::
1: 2.4 nM; 2: 2.4 nM

Just so you know, measured IC50 for N=C(N)NCCC[C@@H]1NC(=O)CNC(=O)[C@@H]2CCCN2C(=O)[C@H]2CCCN2C(=O)[C@H](CCCCN)NC(=O)[C@H](CCCNC(N)=O)NC(=O)[C@H](Cc2ccc(O)cc2)NC(=O)[C@@H]2CSSC[C@H](NC(=O)[C@H](CCCNC(N)=O)NC1=O)C(=O)N[C@@H](CCCNC(=N)N)C(=O)NCC(=O)N1CCC[C@@H]1C(=O)N[C@@H](CCCNC(=N)N)C(=O)N[C@@H](CCCNC(=N)N)C(=O)N[C@@H](Cc1ccc3ccccc3c1)C(=O)N2 [Ex. 114] (cyclo(GR[Cit]CRG[dP]RR[2Nal]CY[Cit]K[dP]P); disulfide 4-11) came out at 1.3 nM

----------
- test details: in vitro
- recorded conditions: human
Bridge positions count the residues as written; N and C are the ends. Square brackets hold non-standard residues; d marks the D form. Peptide text beside a SMILES is read from it. 2Nal = N[C@@H](Cc1ccc2ccccc2c1)C(=O)O; Cit = NC(=O)NCCC[C@H](N)C(=O)O
measured parameter: GI50 at 48 h (µM)
Give bare numbers, in µM.

Sample answers from the record:
>>> quantitative_result("CC(C)C[C@@H]1NC(=O)[C@H](CCCNC(=N)N)NC(=O)[C@H](Cc2ccc(O)cc2)NC(=O)[C@@H]2CCCN2C(=O)[C@H]2CCCN2C(=O)[C@H](CCCCN)NC(=O)[C@H](CCC(N)=O)NC(=O)[C@H](Cc2ccc(O)cc2)NC(=O)[C@@H]2CSSC[C@H](NC1=O)C(=O)N[C@@H](CCCNC(=N)N)C(=O)NCC(=O)N1CCC[C@@H]1C(=O)N[C@@H](CCCNC(=N)N)C(=O)N[C@@H](CCCNC(=N)N)C(=O)N[C@@H](Cc1ccc3ccccc3c1)C(=O)N2 [Ex. 97] (cyclo(YRLCRG[dP]RR[2Nal]CYQK[dP]P); disulfide 4-11)")
44
>>> quantitative_result("N=C(N)NCCC[C@@H]1NC(=O)[C@@H]2CSSC[C@H](NC(=O)[C@H](Cc3ccc4ccccc4c3)NC(=O)[C@H](CCCNC(=N)N)NC(=O)[C@H](Cc3c[nH]c4ccccc34)NC(=O)[C@H]3CCCN3C(=O)CNC1=O)C(=O)N[C@@H](Cc1ccc(O)cc1)C(=O)N[C@@H](CCC(N)=O)C(=O)N[C@@H](CCCCN)C(=O)N1CCC[C@@H]1C(=O)N1CCC[C@H]1C(=O)N[C@@H](Cc1ccc(O)cc1)C(=O)N[C@@H](CCCNC(=N)N)C(=O)N[C@@H](CCCNC(N)=O)C(=O)N2 [Ex. 55] (cyclo(YR[Cit]CRG[dP]WR[2Nal]CYQK[dP]P); disulfide 4-11)")
43

Note: attention shifts to another entry.
response.value for N=C(N)NCCC[C@@H]1NC(=O)[C@@H]2CSSC[C@H](NC(=O)[C@H](Cc3ccc4ccccc4c3)NC(=O)[C@H](CCCNC(=N)N)NC(=O)[C@H](CCCNC(=N)N)NC(=O)[C@H]3CCCN3C(=O)CNC1=O)C(=O)N[C@@H](Cc1ccc(O)cc1)C(=O)N[C@@H](CCC(N)=O)C(=O)N[C@@H](CC(N)=O)C(=O)N1CCC[C@@H]1C(=O)N1CCC[C@H]1C(=O)N[C@@H](Cc1ccc(O)cc1)C(=O)N[C@@H](CCCNC(=N)N)C(=O)N[C@@H](CCCNC(N)=O)C(=O)N2 [Ex. 84] (cyclo(YR[Cit]CRG[dP]RR[2Nal]CYQN[dP]P); disulfide 4-11) (field: GI50 at 48 h) = 62
